Assignment: determine reported activity at 6 µM for the given compounds.
# Tested on: histiocytic lymphoma (U937)
# measurement-description: cell proliferation assay ([methyl-3H] thymidine incorporation), U937
# Type: cell-based, human
# study-conditions: Homo sapiens, U-937; Table 1; final concentration 6 μM; 72 hours in culture, 3 hours pulse; n=6; read-out: U937: percentage of control 3[H] Thymidine incorporation
# Protocol: Two human cell lines namely a histiocytic lymphoma (U937) and a melanoma (RPMI-7951) were seeded into 30 mm^2 tissue culture wells, in the appropriate culture medium supplemented with 10% fetal calf serum at a density of 250 cells/mm^2. Six hours later the test compounds were added in the same culture medium to the cells to give a final concentration of 6 μM. […] (2 μCi/ml) and then harvested onto filter mats and DNA associated radioactivity counted. Results are expressed as percentage of control ^3[H] […]

Qu. // query activity at 6 µM value for entry COC(=O)[C@H](Cc1ccccc1)NC(=O)[C@H](CC(C)C)[C@H](C)C(=O)NO
Ans. 19%

Qu. Which value of activity at 6 µM has been reported for C=CC[C@H](C(=O)NO)[C@@H](CC(C)C)C(=O)N[C@@H](Cc1ccccc1)C(=O)OCC in the records?
Ans. 7%

Qu. Need activity at 6 µM of C=CC[C@H](C(=O)NO)[C@@H](CC(C)C)C(=O)N[C@@H](Cc1ccccc1)C(=O)OC(C)C , thanks.
Ans. 2.5%

Qu. Which activity at 6 µM is reported for this compound? COC(=O)[C@@H](Cc1ccccc1)NC(=O)[C@@H](CC(C)C)[C@@H](C)C(=O)NO [Example 4, reference compound]
Ans. 93%

Qu. Looking for the measured activity at 6 µM of C=CC[C@H](C(=O)NO)[C@@H](CC(C)C)C(=O)N[C@@H](Cc1ccccc1)C(=O)OC , can you help?
Ans. 7%

====

# Tested on: melanoma (RPMI-7951)
# measurement-description: cell proliferation assay ([methyl-3H] thymidine incorporation), RPMI-7951
# Assay type: cell-based, human
# study-conditions: Table 1; final concentration 6 μM; 72 hours in culture, 3 hours pulse; n=6
Exercise: state measured RPMI: percentage of control 3[H] Thymidine incorporation for each of the molecules provided.

Qu. Find the measured RPMI: percentage of control 3[H] Thymidine incorporation: item C=CC[C@H](C(=O)NO)[C@@H](CC(C)C)C(=O)N[C@@H](Cc1ccccc1)C(=O)OC(C)C , target or system melanoma (RPMI-7951).
Ans. 27 percentage of control

Qu. Param readout = RPMI: percentage of control 3[H] Thymidine incorporation; param system = melanoma (RPMI-7951); param query = COC(=O)[C@H](Cc1ccccc1)NC(=O)[C@H](CC(C)C)[C@H](C)C(=O)NO ; response: value
Ans. 82 percentage of control

Qu. # query: RPMI: percentage of control 3[H] Thymidine incorporation | item C=CC[C@H](C(=O)NO)[C@@H](CC(C)C)C(=O)N[C@@H](Cc1ccccc1)C(=O)OC | system: melanoma (RPMI-7951)
Ans. 40 percentage of control

Qu. Could you share what RPMI: percentage of control 3[H] Thymidine incorporation was measured for C=CC[C@H](C(=O)NO)[C@@H](CC(C)C)C(=O)N[C@@H](Cc1ccccc1)C(=O)OCC , tested on melanoma (RPMI-7951)?
Ans. 37 percentage of control
